I'd appreciate it if you could supply growth values for the items below.
System: LOX IMVI melanoma
protocolSummary: NCI-60 one-dose screen, 48 h (100 = growth as untreated, 0 = no growth, -100 = all killed)
reportedConditions: 10 µM unless noted
About 83,000 compounds went through this panel and 20% of them were active in at least one assay; those are over-represented in the sample as a whole.
Return type: number; implicit unit %.

Prompt line: State its growth: CN1CCN(c2cc(F)c(NC3=C(Cl)C(=O)c4ncccc4C3=O)c(F)c2)CC1
Response line: -70.3

Prompt line: State its growth: CC(C)CN(C(=O)c1ccc(Cl)cc1)c1c(N)n(CC(C)C)c(=O)[nH]c1=O
Response line: 102

Prompt line: State its growth: CCOC(=O)C1CC(=O)c2cc(OC)c(OC)cc2C1 (stereo unspecified)
Response line: 104

Prompt line: State its growth: O=c1[nH]c(=O)[nH]c(=S)[nH]1
Response line: 98.1

Prompt line: State its growth: COc1ccc(C2CC(c3cccc(Nc4ccncc4)c3)=NN2c2ccccc2)cc1 (stereo unspecified)
Response line: 28.5

Prompt line: State its growth: O=C(Nc1cccc(Cl)c1)c1cc(Cl)ccc1O
Response line: -32.5

Prompt line: State its growth: O=C(CNCCO)Nc1ccc2ncnc(Nc3ccc(OCc4cccc(F)c4)c(Cl)c3)c2c1
Response line: 74.3

Prompt line: State its growth: FCc1nc2nc(Cl)c(Cl)nc2[nH]1
Response line: 95.3

Prompt line: State its growth: COc1ccc(C(=O)c2cc3c(N)c(C(=O)Nc4cccc(Br)c4C)sc3nc2C)cc1
Response line: 19

Prompt line: State its growth: COc1ccc(Cn2nc(-c3cc(OC)c(OC)c(OC)c3)c3c2CCc2cnoc2-3)cc1OC
Response line: 47

Prompt line: State its growth: O=C1NC(=S)NC(=O)C1=Cc1cn(Cc2ccccn2)c2ccccc12
Response line: 27.1
